# experimental-target: FPR2 (Homo sapiens)
# Construct: expressed in transfected cells; host or cells: HL60 (human promyelocytic leukemia), stably transfected; gift from Dr. Marie-Josephe Rabiet
# Sequence (P25090 1-351): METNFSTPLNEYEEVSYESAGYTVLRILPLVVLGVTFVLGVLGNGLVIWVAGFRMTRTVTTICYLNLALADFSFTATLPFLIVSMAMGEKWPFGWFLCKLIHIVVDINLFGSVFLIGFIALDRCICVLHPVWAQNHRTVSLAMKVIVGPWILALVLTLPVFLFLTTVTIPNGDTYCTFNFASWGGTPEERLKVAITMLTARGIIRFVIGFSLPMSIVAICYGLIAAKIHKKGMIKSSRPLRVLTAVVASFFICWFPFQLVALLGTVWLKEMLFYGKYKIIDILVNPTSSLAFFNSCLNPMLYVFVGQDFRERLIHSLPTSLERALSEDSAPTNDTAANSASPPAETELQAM
# assay-protocol: Ca2+ mobilization in FPR2-transfected HL60 cells
# Type: cell-based
Please note: EC50 exactly at 2000 nM is not fulfilled. Only values below 2000 nM get fulfilled.

compound=Cc1c(C(=O)OC(C)C)cc(C#N)c(=O)n1CC(=O)Nc1ccc(Br)cc1 experimental_target="FPR2 (Homo sapiens)" assigned_label="not fulfilled"
compound=CNC(=O)c1cc(C#N)c(=O)n(CC(=O)Nc2ccc(Br)cc2)c1C experimental_target="FPR2 (Homo sapiens)" assigned_label=fulfilled
compound="Cc1c(-c2cccc(O)c2)cc(C#N)c(=O)n1CC(=O)Nc1ccc(Br)cc1 [Compound 14a]" experimental_target="FPR2 (Homo sapiens)" assigned_label=fulfilled
compound=COc1cccc(CCOC(=O)c2cc(C#N)c(=O)n(CC(=O)Nc3ccc(Br)cc3)c2C)c1 experimental_target="FPR2 (Homo sapiens)" assigned_label="not fulfilled"
compound=COc1ccc(C(=O)c2cc(C#N)c(=O)n(CC(=O)Nc3ccc(Br)cc3)c2C)cc1 experimental_target="FPR2 (Homo sapiens)" assigned_label=fulfilled
compound=Cc1c(C(=O)N(C)C)cc(C#N)c(=O)n1CC(=O)Nc1ccc(Br)cc1 experimental_target="FPR2 (Homo sapiens)" assigned_label="not fulfilled"
compound=CCNC(=O)c1cc(C#N)c(=O)n(CC(=O)Nc2ccc(Br)cc2)c1C experimental_target="FPR2 (Homo sapiens)" assigned_label="not fulfilled"
compound=CCCCNC(=O)c1cc(C#N)c(=O)n(CC(=O)Nc2ccc(Br)cc2)c1C experimental_target="FPR2 (Homo sapiens)" assigned_label=fulfilled
